Experiment: Cytotoxicity counterscreen for inhibitors of SARS-CoV-2 cell entry (AID 1645845); further: nearly all actives have a fitted effect of over 50% in size
Conditions: cell viability (SARS-CoV-2 entry assay cells); series mostly up to 57.1 µM
Records with an inconclusive call do not appear. Calls of active or inactive are those of the source. The call rests on the fitted dose curve.

>  <compound>
CCOC(=O)[C@H](CCc1ccccc1)N[C@@H](C)C(=O)N1[C@H](C(=O)O)C[C@@H]2CCC[C@@H]21

>  <outcome>
inactive

$$$$
>  <compound>
CC1Cc2ccccc2N1NC(=O)c1ccc(Cl)c(S(N)(=O)=O)c1 (centres undefined)

>  <outcome>
inactive

$$$$
>  <compound>
CN(C)c1cc(NC(=O)CNC(C)(C)C)c(O)c2c1C[C@@H]1C[C@H]3[C@H](N(C)C)C(=O)C(C(N)=O)=C(O)[C@@]3(O)C(=O)C1=C2O

>  <outcome>
inactive

$$$$
>  <compound>
Oc1ccc(C2CNCCc3c2cc(O)c(O)c3Cl)cc1 (centres undefined)

>  <outcome>
inactive

$$$$
>  <compound>
CCOC(=O)[C@H](CCc1ccccc1)N[C@@H](C)C(=O)N1Cc2ccccc2C[C@H]1C(=O)O

>  <outcome>
inactive

$$$$
>  <compound>
N[C@@H](Cc1ccc(N(CCCl)CCCl)cc1)C(=O)O

>  <outcome>
inactive

$$$$
>  <compound>
COC1(CS(=O)c2ccccc2)CCN(CCc2c[nH]c3ccc(F)cc23)CC1 (centres undefined)

>  <outcome>
inactive

$$$$
>  <compound>
COc1cc2nc(N3CCN(C(=O)C4COc5ccccc5O4)CC3)nc(N)c2cc1OC (centres undefined)

>  <outcome>
inactive

$$$$
>  <compound>
COc1cc2nc(N3CCN(C(=O)c4ccco4)CC3)nc(N)c2cc1OC

>  <outcome>
inactive

$$$$

###

Target: Cytochrome P450 2D6 (Homo sapiens)
Assay: Cytochrome P450 family 2 subfamily D member 6 (CYP2D6) small molecule antagonists: luciferase biochemical (cell-free) qHTS assay (AID 1645840); further: nearly all actives have a fitted effect of over 55% in size
Settings: P450-Glo CYP2D6 enzyme, luciferin luminescence, 1 h; series mostly up to 57.4 µM
Results filed as inconclusive are left out. The source made the active and inactive calls. The call rests on the fitted dose curve; in most records, active means well fitted inhibition curve with a large enough effect in the repeat runs; inconclusive means weak or mixed curves; inactive means flat fitted curve, though single readings scatter.
Outcomes: T for active, F for inactive

>  <compound>
c1ccc(C2CC2)c(OCC2=NCCN2)c1

>  <category>
T

$$$$
>  <compound>
CC(CCc1ccccc1)NC(C)C(O)c1ccc(O)cc1 (configuration not stated)

>  <category>
T

$$$$
>  <compound>
Oc1ccc(Cl)cc1Cc1ccccc1

>  <category>
T

$$$$
>  <compound>
CC[N+]1(C)CCCC(OC(=O)C(O)(c2ccccc2)c2ccccc2)C1 (configuration not stated)

>  <category>
T

$$$$
>  <compound>
COC[C@@H](NC(C)=O)C(=O)NCc1ccccc1

>  <category>
F

$$$$
>  <compound>
O=C(NC(O)C(Cl)(Cl)Cl)NC(O)C(Cl)(Cl)Cl (configuration not stated)

>  <category>
F

$$$$
>  <compound>
Cc1ccc(S(=O)(=O)N[C@@H](CCCCN)C(=O)CCl)cc1

>  <category>
T

$$$$
>  <compound>
CN(C)CCc1ccc(O)cc1

>  <category>
F

$$$$
>  <compound>
CCC(COC(=O)c1cc(OC)c(OC)c(OC)c1)(c1ccccc1)N(C)C (configuration not stated)

>  <category>
T

$$$$
>  <compound>
OCCOc1ccccc1

>  <category>
F

$$$$
>  <compound>
Cn1cc(C2=C(c3cn(C4CCN(Cc5ccccn5)CC4)c4ccccc34)C(=O)NC2=O)c2ccccc21

>  <category>
F

$$$$
>  <compound>
CNC(=O)N1N=C(c2ccc(N)cc2)c2cc3c(cc2CC1C)OCO3 (configuration not stated)

>  <category>
F

$$$$
>  <compound>
Cc1cccc(C)c1NC(=O)CN1CCCC1=O

>  <category>
F

$$$$
>  <compound>
Clc1ccc(CCC(Cn2ccnc2)Sc2c(Cl)cccc2Cl)cc1 (configuration not stated)

>  <category>
T

$$$$
>  <compound>
NCC1(CC(=O)O)CCCCC1

>  <category>
F

$$$$
>  <compound>
COc1ccc(C(=O)c2c(C)n(CCN3CCOCC3)c3ccccc23)cc1

>  <category>
T

$$$$
>  <compound>
Oc1cccc2cccnc12

>  <category>
F

$$$$
>  <compound>
CCC(=O)C(CC(C)N(C)C)(c1ccccc1)c1ccccc1 (configuration not stated)

>  <category>
T

$$$$
>  <compound>
CNC(=O)c1ccc(N2C(=S)N(c3ccc(C#N)c(C(F)(F)F)c3)C(=O)C23CCC3)cc1F

>  <category>
F

$$$$
>  <compound>
CC(C)NCC(O)c1ccccc1Cl (configuration not stated)

>  <category>
T

$$$$
>  <compound>
CCN(CC)CCOC(=O)C(O)(c1ccccc1)c1ccccc1

>  <category>
T

$$$$
>  <compound>
NN=C(N)N

>  <category>
F

$$$$
>  <compound>
FC(F)(F)c1cccc(C2=CCN(CCc3ccc4ccccc4c3)CC2)c1

>  <category>
T

$$$$
>  <compound>
CC[C@@H](CO)NC(=O)[C@@H]1C=C2c3cccc4c3c(cn4C)C[C@H]2N(C)C1

>  <category>
T

$$$$
>  <compound>
O=C1NCN(c2ccccc2)C12CCN(CC1COc3ccccc3O1)CC2 (configuration not stated)

>  <category>
T

$$$$
>  <compound>
COc1ccccc1N1CCNCC1

>  <category>
F

$$$$
>  <compound>
c1ccc2c(c1)Nc1ccccc1S2

>  <category>
F

$$$$

###

Target: Peroxisome proliferator-activated receptor alpha (Homo sapiens)
Test: qHTS assay for small molecule agonists of the peroxisome proliferator-activated receptor alpha (PPARalpha) signaling pathway (AID 651778); further: % of control where 0% means no effect
Details: PathHunter PPARalpha complementation, chemiluminescence, 6 h; stronger effect = higher value
Excerpt: National Center for Advancing Translational Sciences [NCATS] NIH Chemical Genomics Center [NCGC] U.S. Environmental Protection Agency [EPA] National Institutes of Environmental Health Sciences [NIEHS] National Toxicology Program [NTP] The Peroxisome proliferator-activated receptors (PPARs) are lipid-activated transcription factors of the nuclear receptor superfamily with three distinct subtypes (alpha, garmma and beta/delta). […]
max response listing for selected molecules.

>  <molecule>
O=c1oc2ccccc2c(O)c1C(CC(O)c1ccc(-c2ccc(Br)cc2)cc1)c1ccccc1 (configuration not stated)

>  <experimental.target>
Peroxisome proliferator-activated receptor alpha (Homo sapiens)

>  <measurement.units>
%

>  <max response>
-1.05

$$$$
>  <molecule>
NCC(O)c1ccc(O)cc1 (configuration not stated)

>  <experimental.target>
Peroxisome proliferator-activated receptor alpha (Homo sapiens)

>  <measurement.units>
%

>  <max response>
-2.88

$$$$
>  <molecule>
O=c1[nH]c2ccccc2n1C1CCN(CCCC(c2ccc(F)cc2)c2ccc(F)cc2)CC1

>  <experimental.target>
Peroxisome proliferator-activated receptor alpha (Homo sapiens)

>  <measurement.units>
%

>  <max response>
-0.751

$$$$
>  <molecule>
C=C(C)[C@H]1Cc2c(ccc3c2O[C@@H]2COc4cc(OC)c(OC)cc4[C@@H]2C3=O)O1

>  <experimental.target>
Peroxisome proliferator-activated receptor alpha (Homo sapiens)

>  <measurement.units>
%

>  <max response>
7.18

$$$$
>  <molecule>
C[C@@H]1O[C@@H](O[C@H]2C[C@@H](O)[C@]3(CO)[C@H]4[C@H](O)C[C@]5(C)[C@@H](C6=CC(=O)OC6)CC[C@]5(O)[C@@H]4CC[C@]3(O)C2)[C@H](O)[C@H](O)[C@H]1O

>  <experimental.target>
Peroxisome proliferator-activated receptor alpha (Homo sapiens)

>  <measurement.units>
%

>  <max response>
-0.456

$$$$
>  <molecule>
CNCC(O)c1ccc(O)cc1 (configuration not stated)

>  <experimental.target>
Peroxisome proliferator-activated receptor alpha (Homo sapiens)

>  <measurement.units>
%

>  <max response>
-4.08

$$$$
>  <molecule>
C[C@H]1O[C@@H](O[C@H]2[C@@H](O)C[C@H](O[C@H]3[C@@H](O)C[C@H](O[C@H]4CC[C@@]5(C)[C@H](CC[C@@H]6[C@@H]5CC[C@]5(C)[C@@H](C7=CC(=O)OC7)CC[C@]65O)C4)O[C@@H]3C)O[C@@H]2C)C[C@H](O)[C@@H]1O

>  <experimental.target>
Peroxisome proliferator-activated receptor alpha (Homo sapiens)

>  <measurement.units>
%

>  <max response>
-0.744

$$$$

###

Test system: DIV17
Assay: qHTS profiling for inhibitors of Plasmodium falciparum proliferation (AID 504749); further: nearly all actives have a fitted effect of over 60% in size
Settings: P. falciparum in erythrocytes, SYBR Green DNA, 72 h; series mostly up to 28.7 µM
Inconclusive results are not listed. Activity calls are given as the source filed them. Calls follow the shape of the dose curve; as a rule, active = well fitted inhibition curve with a large enough effect; inconclusive = small, poorly fitted or top-dose-only effect; inactive = flat fitted curve, though single readings scatter.
Possible outcomes: class 1 (active), class 0 (inactive)

>  <compound>
c1ccc2c(c1)Nc1ccccc1S2

>  <experimental.target>
DIV17

>  <category>
class 1

$$$$
>  <compound>
CCCC1CCCCN1 (stereo not drawn)

>  <experimental.target>
DIV17

>  <category>
class 0

$$$$
>  <compound>
O=c1[nH]c2ccccc2n1C1CCN(CCCC(c2ccc(F)cc2)c2ccc(F)cc2)CC1

>  <experimental.target>
DIV17

>  <category>
class 0

$$$$
>  <compound>
NCC1(CC(=O)O)CCCCC1

>  <experimental.target>
DIV17

>  <category>
class 0

$$$$
>  <compound>
NP(N)(=O)NC(=O)c1ccc(F)cc1

>  <experimental.target>
DIV17

>  <category>
class 0

$$$$
>  <compound>
CC1OC(C)OC(C)O1 (stereo not drawn)

>  <experimental.target>
DIV17

>  <category>
class 0

$$$$
>  <compound>
CN1C[C@H](CNC(=O)OCc2ccccc2)C[C@@H]2c3cccc4c3c(cn4C)C[C@H]21

>  <experimental.target>
DIV17

>  <category>
class 1

$$$$
>  <compound>
N[C@@H](Cc1ccc(N(CCCl)CCCl)cc1)C(=O)O

>  <experimental.target>
DIV17

>  <category>
class 1

$$$$
>  <compound>
Nc1ccncc1

>  <experimental.target>
DIV17

>  <category>
class 0

$$$$
>  <compound>
CCN(CC)CCN1C(=O)CN=C(c2ccccc2F)c2cc(Cl)ccc21

>  <experimental.target>
DIV17

>  <category>
class 0

$$$$
>  <compound>
OCCOc1ccccc1

>  <experimental.target>
DIV17

>  <category>
class 0

$$$$
>  <compound>
CC(=O)[C@H]1CC[C@H]2[C@@H]3CC[C@H]4C[C@](C)(O)CC[C@]4(C)[C@H]3CC[C@]12C

>  <experimental.target>
DIV17

>  <category>
class 0

$$$$
>  <compound>
CC1NCCOC1c1ccccc1 (stereo not drawn)

>  <experimental.target>
DIV17

>  <category>
class 0

$$$$
>  <compound>
CN1CCN(C(=O)O[C@H]2c3nccnc3C(=O)N2c2ccc(Cl)cn2)CC1

>  <experimental.target>
DIV17

>  <category>
class 0

$$$$
>  <compound>
CCOC(=O)C1(c2ccccc2)CCN(CCC(C#N)(c2ccccc2)c2ccccc2)CC1

>  <experimental.target>
DIV17

>  <category>
class 1

$$$$
>  <compound>
Clc1ccc(COC(Cn2ccnc2)c2ccc(Cl)cc2Cl)cc1 (stereo not drawn)

>  <experimental.target>
DIV17

>  <category>
class 1

$$$$
>  <compound>
Oc1ccc(Cl)cc1Cc1ccccc1

>  <experimental.target>
DIV17

>  <category>
class 1

$$$$
>  <compound>
CN(C)CCc1ccc(O)cc1

>  <experimental.target>
DIV17

>  <category>
class 0

$$$$
>  <compound>
Oc1cccc2cccnc12

>  <experimental.target>
DIV17

>  <category>
class 0

$$$$
>  <compound>
CC(C)CC(N(C)C)C1(c2ccc(Cl)cc2)CCC1 (stereo not drawn)

>  <experimental.target>
DIV17

>  <category>
class 0

$$$$
>  <compound>
NN=C(N)N

>  <experimental.target>
DIV17

>  <category>
class 0

$$$$
>  <compound>
CN1C(=S)CN=C(c2ccccc2)c2cc(Cl)ccc21

>  <experimental.target>
DIV17

>  <category>
class 0

$$$$
>  <compound>
CCCN1CCC[C@@H]2Cc3[nH]ncc3C[C@H]21

>  <experimental.target>
DIV17

>  <category>
class 0

$$$$
